# Protocol Description: In vivo pharmacokinetics in rats
# Set-up: species or system Sprague-Dawley rats
# Run Parameters: rat, plasma; male Sprague-Dawley rats, 10 mg/kg PO, 2 hr; read-out: Mean (ng/mL) after 10 mg/kg PO dose
Quantity Name: concentration at 2 h (ng/mL)

[
  {
    "Molecule": "C[C@@H](NC(=O)Cc1ccc(C(F)(F)F)cc1)c1cc2cnn(CC(F)(F)F)c2cn1 [Example 15]",
    "Units Text": "ng/mL",
    "Measured Value": 5440
  }
]

* * *

# Protocol Description: In vivo pharmacokinetics in rats
# Parameters: species or system Sprague-Dawley rats
# Run Parameters: rat, plasma; male Sprague-Dawley rats, 1 mg/kg IV, 12 hr; read-out: Mean (ng/mL) after 1 mg/kg IV dose
# Experimental: Fasted male Sprague-Dawley rats between 6 to 8 weeks of age were dosed with calcium channel antagonists of the present disclosure to evaluate in vivo pharmacokinetics. Each compound was formulated in 5% DMAC+5% Solutol HS15+90% Saline to yield a solution for dosing. The rats were dosed intravenously (IV) at 1 mg/kg (1 mL/kg) via foot dorsal vein (N=3) or orally (PO) at 10 mg/kg (10 mL/kg) via oral gavage (N=3). […]
Quantity Name: concentration at 12 h

[
  {
    "Smi": "C[C@@H](NC(=O)Cc1ccc(C(F)(F)F)cc1)c1cc2cnn(CC(F)(F)F)c2cn1",
    "Measured Value": "4.42 ng/mL"
  }
]
